The values you see were collected from the supplement of paper PMC10567573.

Would you kindly list protein stability index for each of these variants?
B1: MTMR15 (parent)
chain: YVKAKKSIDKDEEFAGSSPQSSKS

- Variants of: B1
- protocol-notes: protein stability index of a GFP-peptide fusion (GPS, HEK-293T) (PSI 1-6); higher = more stable;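 further: lentivirally expressed fusions sorted by FACS into six bins by GFP to DsRed ratio, PSI derived from sequencing read proportions per bin multiplied by bin number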
- condition-set: c terminus: a fixed tail appended

Would you kindly share the measured protein stability index for YVKAKKSIDKDEEFARSSPQSSKS [G16R] ? 3.06

Next record, please: YVKAKKSIDKDEEFFGSSPQSSKS [A15F] 1.91

Next record, please: YVKAKKSIDKGEEFAGSSPQSSKS [D11G] 2.88

Next record, please: YVKAKKSIDIDEEFAGSSPQSSKS [K10I] 3.21

Next record, please: YVKAKKSIDKDEEFAGSSPESSKS [Q20E] 3.29

Next record, please: YVKAKKSEDKDEEFAGSSPQSSKS [I8E] 3.42

Next record, please: YVKAKKSIDKLEEFAGSSPQSSKS [D11L] 2.46

Next record, please: YVKAKKSIDKDEEFAGSSTQSSKS [P19T] 3.5

Next record, please: YVKAKKSIDKSEEFAGSSPQSSKS [D11S] 3.05

Next record, please: YVKAKKSIDKDEEFAGSSPQFSKS [S21F] 3.03

Next record, please: YVFAKKSIDKDEEFAGSSPQSSKS [K3F] 3.3

Next record, please: YVKAKKSIDKDEEFAQSSPQSSKS [G16Q] 3.21

Next record, please: YKKAKKSIDKDEEFAGSSPQSSKS [V2K] 5.26

Next record, please: YVKAKKSIDGDEEFAGSSPQSSKS [K10G] 3.28

Next record, please: YVKAKKSCDKDEEFAGSSPQSSKS [I8C] 2.83

Next record, please: YVKAKYSIDKDEEFAGSSPQSSKS [K6Y] 2.78

Next record, please: YVKAKKSIDHDEEFAGSSPQSSKS [K10H] 3.61

Next record, please: YVKAKKSIDKDEEFAGVSPQSSKS [S17V] 2.35

Next record, please: YVKAKKSIDKDEEFAGSSLQSSKS [P19L] 2.54

Next record, please: YVKAKKSIPKDEEFAGSSPQSSKS [D9P] 2.83

Next record, please: YVKAKKSIDKREEFAGSSPQSSKS [D11R] 2.45

Next record, please: YVKAKKQIDKDEEFAGSSPQSSKS [S7Q] 2.91

Next record, please: YVKAKKSIDKDEEFAGQSPQSSKS [S17Q] 2.93

Next record, please: YVKAKKSIDKDEEFAGISPQSSKS [S17I] 2.96

Next record, please: YVKACKSIDKDEEFAGSSPQSSKS [K5C] 2.74

Next record, please: YVKAKKMIDKDEEFAGSSPQSSKS [S7M] 3.33

Next record, please: YVKMKKSIDKDEEFAGSSPQSSKS [A4M] 3.31

Next record, please: YVKAKKSIDKDEEFTGSSPQSSKS [A15T] 3.08

Next record, please: YVKAKKSIDPDEEFAGSSPQSSKS [K10P] 3.55

Next record, please: YVKAKKSIDKDEEFAGSSQQSSKS [P19Q] 3.18

Next record, please: RVKAKKSIDKDEEFAGSSPQSSKS [Y1R] 5.62

Next record, please: YVKAKKRIDKDEEFAGSSPQSSKS [S7R] 3.22

Next record, please: YVKAKKSIDKDEEFAGSSPQSTKS [S22T] 2.87

Next record, please: NVKAKKSIDKDEEFAGSSPQSSKS [Y1N] 5.4

Next record, please: YVKAKKSIDKDEEFAGSSPQSFKS [S22F] 2.89

Next record, please: YVKAKKSWDKDEEFAGSSPQSSKS [I8W] 3.22
